B1: library; a variant is named by its letters at N, in order (parent)
chain: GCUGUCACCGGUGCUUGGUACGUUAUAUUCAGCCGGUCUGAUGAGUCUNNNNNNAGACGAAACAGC

Variants of: B1
experiment summary: FACS-Seq fitted mean relative fluorescence mCherry/BFP with ligand (log10 relative fluorescence); HEK293T overexpressing SLC46A1; ligand concentration (+) FACS-Seq: 6 mM; higher = higher reporter protein expression
setup conditions: with (6R,S)-folinic acid; ligand present: yes
# if value of FACS-Seq fitted mean (log10) reaches 0.4, tag 1; if it stays below, tag 0

INSERT INTO assay_data (variant_name, category_label) VALUES
  ('UCAGUC', 0),
  ('CGAGUG', 0),
  ('UUAAUA', 0),
  ('GGUAAG', 1),
  ('UGGAUU', 1),
  ('UACCGG', 1),
  ('CACGCA', 0),
  ('UUCACU', 0),
  ('UACGGG', 1),
  ('GAGCCA', 0),
  ('AACAAC', 0),
  ('UCAGCG', 1),
  ('AUUGCG', 0),
  ('AAAUAC', 0),
  ('GGGUAU', 0),
  ('AAUGUC', 0),
  ('GAAUUG', 1),
  ('UUACGU', 0),
  ('CGCCAG', 0),
  ('UUUAAG', 1),
  ('GGAGAA', 0),
  ('AAGACG', 1),
  ('GCGAGC', 0),
  ('CAUAUC', 0),
  ('GAAGCA', 1),
  ('AUAAGC', 1),
  ('UAACAA', 0),
  ('AUUAUU', 1),
  ('UACUUG', 1),
  ('GUUUUC', 0),
  ('UGAAGU', 0),
  ('AUGCGU', 1),
  ('UGGGAU', 1),
  ('UUAGAA', 0),
  ('CCCUUC', 0),
  ('CGAAAA', 1),
  ('UACCGU', 1),
  ('UGACGG', 0),
  ('GUGCGA', 0),
  ('GAAAUA', 0),
  ('AAAAAA', 1),
  ('UGAUUA', 0),
  ('UUUGCG', 0),
  ('UGCCAA', 0);
